Listed below: Emax values for each entry.
- testedSystem: GSPT1 (Homo sapiens, UniProt P15170+Q96SW2)
- Sequence (P15170 whole entry): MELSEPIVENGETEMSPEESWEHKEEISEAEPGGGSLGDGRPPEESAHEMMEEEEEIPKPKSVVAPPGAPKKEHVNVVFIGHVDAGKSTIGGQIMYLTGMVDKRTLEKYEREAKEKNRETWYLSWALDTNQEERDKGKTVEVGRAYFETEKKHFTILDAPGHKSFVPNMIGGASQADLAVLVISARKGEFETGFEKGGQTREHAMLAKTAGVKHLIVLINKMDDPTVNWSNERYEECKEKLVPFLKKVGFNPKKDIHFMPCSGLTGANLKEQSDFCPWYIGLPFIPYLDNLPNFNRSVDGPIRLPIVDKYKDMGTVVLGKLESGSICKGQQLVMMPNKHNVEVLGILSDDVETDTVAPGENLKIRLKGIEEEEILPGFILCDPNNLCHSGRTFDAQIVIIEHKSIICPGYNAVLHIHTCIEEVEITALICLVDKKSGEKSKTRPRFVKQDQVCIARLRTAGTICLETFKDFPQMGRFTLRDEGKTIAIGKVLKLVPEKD
- Sequence (Q96SW2 whole entry): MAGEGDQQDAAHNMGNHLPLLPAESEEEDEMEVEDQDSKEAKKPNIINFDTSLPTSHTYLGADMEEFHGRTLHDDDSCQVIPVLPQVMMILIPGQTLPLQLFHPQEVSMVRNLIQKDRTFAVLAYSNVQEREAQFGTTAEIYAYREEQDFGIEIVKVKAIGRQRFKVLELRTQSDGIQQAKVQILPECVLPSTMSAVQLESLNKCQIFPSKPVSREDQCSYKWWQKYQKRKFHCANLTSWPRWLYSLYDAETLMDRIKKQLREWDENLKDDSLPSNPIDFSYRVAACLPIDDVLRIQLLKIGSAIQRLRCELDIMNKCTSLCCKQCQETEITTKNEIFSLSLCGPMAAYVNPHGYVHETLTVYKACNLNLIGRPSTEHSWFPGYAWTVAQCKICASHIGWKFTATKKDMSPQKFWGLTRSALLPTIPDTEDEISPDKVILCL
- Sequence (Q16531 2-1140 partner limits assumed): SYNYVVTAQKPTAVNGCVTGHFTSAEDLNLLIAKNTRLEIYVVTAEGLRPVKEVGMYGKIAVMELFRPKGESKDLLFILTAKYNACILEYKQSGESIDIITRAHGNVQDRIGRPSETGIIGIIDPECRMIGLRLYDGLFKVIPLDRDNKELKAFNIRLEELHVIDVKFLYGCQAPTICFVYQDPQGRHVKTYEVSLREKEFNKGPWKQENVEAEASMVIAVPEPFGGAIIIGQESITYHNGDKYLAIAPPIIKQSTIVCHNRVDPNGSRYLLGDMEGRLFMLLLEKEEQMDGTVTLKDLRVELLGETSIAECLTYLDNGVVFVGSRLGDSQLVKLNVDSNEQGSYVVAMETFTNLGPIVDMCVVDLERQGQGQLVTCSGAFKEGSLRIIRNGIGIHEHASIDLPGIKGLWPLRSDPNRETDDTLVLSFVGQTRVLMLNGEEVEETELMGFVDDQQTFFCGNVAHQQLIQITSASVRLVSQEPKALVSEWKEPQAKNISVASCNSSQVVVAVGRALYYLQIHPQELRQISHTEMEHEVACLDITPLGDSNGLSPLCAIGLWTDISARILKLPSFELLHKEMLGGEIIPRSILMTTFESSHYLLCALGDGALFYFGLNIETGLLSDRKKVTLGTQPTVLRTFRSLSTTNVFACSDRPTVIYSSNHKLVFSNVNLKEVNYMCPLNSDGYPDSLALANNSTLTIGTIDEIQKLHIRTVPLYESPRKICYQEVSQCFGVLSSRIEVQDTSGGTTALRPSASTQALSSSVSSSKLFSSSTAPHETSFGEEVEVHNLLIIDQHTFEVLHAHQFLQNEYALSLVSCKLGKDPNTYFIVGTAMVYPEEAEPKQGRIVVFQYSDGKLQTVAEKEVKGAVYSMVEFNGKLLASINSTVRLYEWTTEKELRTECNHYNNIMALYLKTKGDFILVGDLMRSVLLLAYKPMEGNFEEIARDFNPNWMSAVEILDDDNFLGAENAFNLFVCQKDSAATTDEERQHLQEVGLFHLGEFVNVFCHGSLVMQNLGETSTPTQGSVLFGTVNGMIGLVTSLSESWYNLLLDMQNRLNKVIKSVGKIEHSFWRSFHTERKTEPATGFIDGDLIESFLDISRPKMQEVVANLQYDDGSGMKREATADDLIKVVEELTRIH
- testProtocol: HiBiT degradation assay, 293T.114 cells, GSPT1
- Type: cell-based
- particulars: read-out: HiBiT-Degradation 293T.114 GSPT1 6 hours Emax; 293T.114 cells, 6 hours
assayMetric: Emax

1. N#CC1(C(=O)N2CCC(n3cc(Cc4ccc5c6c(cccc46)C(=O)N5C4CCC(=O)NC4=O)cn3)CC2)CCC1 (stereo not shown): > 95%
2. CC(C)(C)OC(=O)N1CCC(n2cc(Cc3ccc4c5c(cccc35)C(=O)N4[C@H]3CCC(=O)NC3=O)cn2)CC1: 60 to 95%
3. CC1(n2cc(Cc3ccc4c5c(cccc35)C(=O)N4C3CCC(=O)NC3=O)cn2)CCN(C(=O)C2CC2)CC1 (stereo not shown): 60 to 95%
4. CCOc1ccc(Cc2ccc3c4c(cccc24)N(C2CCC(=O)NC2=O)C3=O)cc1 (stereo not shown): 60 to 95%
5. CCOC(=O)c1cccc(Cc2ccc3c4c(cccc24)N(C2CCC(=O)NC2=O)C3=O)c1 (stereo not shown): 60 to 95%
6. O=C1CCC(N2C(=O)c3ccc(C4(F)CCN(Cc5ccccc5)CC4)c4nccc2c34)C(=O)N1 (stereo not shown): 60 to 95%
7. COC(=O)c1ccc(Nc2ccc3cccc4c3c2C(=O)N4C2CCC(=O)NC2=O)cc1 (stereo not shown): 60 to 95%

---

- testedSystem: GSPT1 (Homo sapiens, UniProt P15170+Q96SW2)
- testProtocol: HiBiT degradation assay, 293T.114 cells, GSPT1
- Assay type: cell-based
- particulars: read-out: HiBiT-Degradation 293T.114 GSPT1 6 hours Emax; 293T.114 cells, 6 hours
Listed below: Emax values for each entry.
assayMetric: Emax

1. O=C1CCC(N2C(=O)c3ccc(CNC(=O)C(F)(F)c4ccc(Cl)cc4)c4cccc2c34)C(=O)N1 (stereo not drawn): 45 to 60%
2. Cc1cc(C)nc(-c2ccc3c4c(cccc24)N(C2CCC(=O)NC2=O)C3=O)n1 (stereo not drawn): 60 to 95%
3. CCOc1ccc(Cc2ccc3c4c(cccc24)N(C2CCC(=O)NC2=O)C3=O)c(F)c1 (stereo not drawn): 60 to 95%

---

- testedSystem: IKZF1 (Homo sapiens, UniProt Q13422+Q96SW2)
- Construct: endogenously expressing IKZF1 with HiBiT fusion tag via CRISPR; endogenous in cells; host or cells: NCIH929.11 (CRISPR knock-in)
- Sequence (Q13422 whole entry, the tested form may be a part): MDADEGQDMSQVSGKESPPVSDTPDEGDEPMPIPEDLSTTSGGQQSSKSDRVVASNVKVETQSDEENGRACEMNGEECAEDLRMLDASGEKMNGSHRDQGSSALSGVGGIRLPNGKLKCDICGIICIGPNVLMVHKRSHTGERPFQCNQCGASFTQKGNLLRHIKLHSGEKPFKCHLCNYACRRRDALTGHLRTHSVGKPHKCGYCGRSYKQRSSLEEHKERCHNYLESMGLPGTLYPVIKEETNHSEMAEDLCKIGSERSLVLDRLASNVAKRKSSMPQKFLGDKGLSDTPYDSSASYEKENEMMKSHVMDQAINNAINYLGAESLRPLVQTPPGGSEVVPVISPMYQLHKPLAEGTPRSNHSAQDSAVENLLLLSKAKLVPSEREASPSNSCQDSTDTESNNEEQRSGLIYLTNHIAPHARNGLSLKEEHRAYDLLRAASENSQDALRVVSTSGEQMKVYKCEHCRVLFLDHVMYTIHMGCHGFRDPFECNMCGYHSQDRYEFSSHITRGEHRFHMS
- Sequence (Q96SW2 whole entry, the tested form may be a part): as the sequence (Q96SW2 whole entry) above
- Sequence (Q16531 2-1140 partner limits assumed): as the sequence (Q16531 2-1140 partner limits assumed) above
- testProtocol: HiBiT degradation assay, NCIH929.11 (HiBiT-IKZF1) cells
- Type: cell-based
- particulars: read-out: HiBiT-Degradation NCHI929.11 IKZF1 6 hours Emax, NCHI929.11 cells
Listed below: Emax values for each entry.
assayMetric: Emax

1) CCOC(=O)c1ccc(Cc2ccc3c4c(cccc24)N(C2CCC(=O)NC2=O)C3=O)cc1 (stereo not drawn): < 45%
2) CCOc1ccc(Cc2ccc3c4c(cccc24)N(C2CCC(=O)NC2=O)C3=O)c(F)c1 (stereo not drawn): 60 to 95%
3) CC(C)OC1CCN(Cc2cc3c4c(cccc4c2)N(C2CCC(=O)NC2=O)C3=O)CC1 (stereo not drawn): < 45%

The origin of these recorded values is patent US20240018118A1.
